Test: Metabolic stability in hepatocyte
Conditions: human, hepatocytes in suspension
readout_label: hepatocyte CLint at 10 μM (µL/min/1e6 cells)
Report as a plain number; the unit µL/min/1e6 cells is understood.

// query Please give the measured hepatocyte CLint at 10 μM for this compound: CCc1cc(Cl)c(OC)c(N2CCN(CC(O)CCNC(=O)c3cc4ccccc4[nH]3)CC2)c1 (stereo not shown) [R-VK4-116]
// result 4.1

---

Target: UniProtKB P10635
Sequence (P10635 whole entry): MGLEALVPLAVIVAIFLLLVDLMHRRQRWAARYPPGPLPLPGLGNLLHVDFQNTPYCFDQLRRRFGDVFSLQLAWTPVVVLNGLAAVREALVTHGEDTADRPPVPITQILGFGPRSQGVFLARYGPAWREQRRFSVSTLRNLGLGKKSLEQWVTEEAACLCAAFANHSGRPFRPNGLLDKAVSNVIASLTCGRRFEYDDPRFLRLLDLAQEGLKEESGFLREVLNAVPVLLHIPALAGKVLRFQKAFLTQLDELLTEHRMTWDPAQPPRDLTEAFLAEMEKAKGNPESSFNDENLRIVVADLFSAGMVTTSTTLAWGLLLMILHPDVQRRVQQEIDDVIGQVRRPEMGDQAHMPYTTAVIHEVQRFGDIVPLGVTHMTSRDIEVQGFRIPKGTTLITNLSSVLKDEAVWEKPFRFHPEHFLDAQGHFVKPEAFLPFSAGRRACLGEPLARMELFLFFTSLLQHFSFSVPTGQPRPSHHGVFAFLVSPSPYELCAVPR
Assay: CYP inhibition in human liver microsomes
Details: human, human liver microsomes, probe bufuralol
readout_label: activity at 20 min, 60 µM (%)
Report as a plain number; the unit % is understood.

// query Please give the measured activity at 20 min, 60 µM for this compound: CCc1cc(Cl)c(OC)c(N2CCN(CC(O)CCNC(=O)c3cc4ccccc4[nH]3)CC2)c1 (stereo not shown) [R-VK4-116]
// result 84.5
